- targetOrSystem: T1, human beta CGRP (SEQ ID NO: 81) (human, not fully specified)
- T1 peptide: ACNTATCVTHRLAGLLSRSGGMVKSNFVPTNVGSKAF
- testMethodNotes: cell-based or functional assay
Please go through the items and note down their cAMP assay IC50, SK-N-MC cells.
Answers are plain numbers, in nM.

INSERT INTO assay_data (binder, recordedresult) VALUES
  ('cysteine-free lipocalin mutein SEQ ID NO: 40 (designed binder, biotinylated by NHS chemistry for capture in SPR) QDSTSDLIPAPPLSKVPLQQNFQDNQFQGKWYVVGWAGNTLLREDKDPIKMQAMIYELKEDKSYNVTWVYFADKKFNYHIETFVPGSQPGEFTLGTIKSYPGETPILVRVVSTNYNQHAMVFFKGVNQNREIFEIVLYGRTKELTNELKENFIRFSKSLGLPENHIVFPVPIDQDIDGSAWSHPQFEK', 0.42);

Suppose we examine the binder cysteine-free lipocalin mutein SEQ ID NO: 31 (designed binder, biotinylated by NHS chemistry for capture in SPR) QDSTSDLIPAPPLSKVPLQQNFQDNQFQGKWYVVGWAGNTLLREDKDPIKMQAMIYELKEDKSYNVTWVYFADKKRNYHIETFVPGSQPGEFTLGTIKSYPGETPILVRVVSTNYNQHAMVFFKGVNQNREIFEIVLYGRTKELTNELKENFIRFSKSLGLPENHIVFPVPIDQFIDGSAWSHPQFEK ; what cAMP assay IC50, SK-N-MC cells value has been reported?
1.64
